Molecular target: human FSH receptor (Homo sapiens, UniProt P23945)
Construct: expressed in transfected cells; host or cells: CHO (Chinese Hamster Ovary) cells, stably transfected, cotransfected with CRE-luciferase reporter
Sequence (P23945 18-695): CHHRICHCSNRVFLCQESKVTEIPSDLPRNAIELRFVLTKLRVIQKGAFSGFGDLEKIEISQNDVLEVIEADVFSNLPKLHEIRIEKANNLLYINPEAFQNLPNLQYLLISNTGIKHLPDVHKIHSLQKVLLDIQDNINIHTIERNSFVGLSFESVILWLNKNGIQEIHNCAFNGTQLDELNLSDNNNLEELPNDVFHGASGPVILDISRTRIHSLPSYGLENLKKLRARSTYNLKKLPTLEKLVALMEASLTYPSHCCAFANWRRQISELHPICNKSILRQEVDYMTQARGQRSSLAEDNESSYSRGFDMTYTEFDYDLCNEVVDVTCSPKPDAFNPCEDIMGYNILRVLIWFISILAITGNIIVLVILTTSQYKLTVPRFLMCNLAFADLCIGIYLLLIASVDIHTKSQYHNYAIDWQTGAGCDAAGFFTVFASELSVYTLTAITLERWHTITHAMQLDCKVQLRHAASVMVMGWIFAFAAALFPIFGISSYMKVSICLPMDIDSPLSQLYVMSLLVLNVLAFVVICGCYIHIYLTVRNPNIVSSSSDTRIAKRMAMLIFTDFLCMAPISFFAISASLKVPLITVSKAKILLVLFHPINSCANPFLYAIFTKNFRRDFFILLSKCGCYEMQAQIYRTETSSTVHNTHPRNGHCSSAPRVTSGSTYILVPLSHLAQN
Assay: Agonistic activity at the human FSH receptor expressed in CHO cells (CRE-luciferase reporter)
Assay type: cell-based
Conditions: CHO cells stably transfected with human FSH receptor and CRE/luciferase reporter; 4 hours incubation; pEC50 is -log EC50; read-out: hFSHRago (CHO luc) pEC50 (converted)
assay endpoint: log10 of EC50 (log10 of the value in nM)
Values reflect log10 of reported EC50 (nM).

Illustrative cases are given below, each with its answer.
# compound, assay endpoint, result number
rows = [
    ("COc1cc2c(cc1-n1cc(C[C@H](O)CO)nn1)-c1c(-c3cccs3)c3c(n1CC2)C(=O)N(C(C)(C)C)CCCC3 [Compound 20f]", "log10 of EC50", 0.61),
    ("COc1cc2c(cc1OC(C)C)-c1c(Br)c3c(n1CC2)C(=O)N(C(C)(C)C)CCOC3 [Compound 18d]", "log10 of EC50", 2.10),
    ("COc1cc2c(cc1NC(=O)CN1CC(O)C1)-c1c(-c3cccs3)c3c(n1CC2)C(=O)N(C(C)(C)C)CCCC3 [Compound 22c]", "log10 of EC50", 0.10),
    ("COc1cc2c(cc1-c1cccnc1)-c1c(Br)c3c(n1CC2)C(=O)N(C(C)(C)C)CCC3 [Compound 13d]", "log10 of EC50", 2.58),
    ("COc1cc2c(cc1-c1c(C)nn(C)c1C)-c1c(-c3cccs3)c3c(n1CC2)C(=O)N(C(C)C)CCN(C(C)=O)C3 [Compound 10r]", "log10 of EC50", 2.21),
]

Query string: If you can, please state the reported log10 of EC50 value of COc1cc2c(cc1[N+](=O)[O-])-c1c(-c3cccs3)c3c(n1CC2)C(=O)N(C(C)(C)C)CCC3 .
Result string: 1.54

Query string: Reported log10 of EC50 for COc1cc2c(cc1C(=O)O)-c1c(-c3cccs3)c3c(n1CC2)C(=O)N(C(C)(C)C)CCCC3 [Compound 26b] : what is it?
Result string: 1.65

Query string: Suppose we examine the compound COc1cc2c(cc1C(=O)NCCC(O)CO)-c1c(-c3cccs3)c3c(n1CC2)C(=O)N(C(C)(C)C)CCCC3 (centres unmarked) ; what log10 of EC50 value has been reported?
Result string: 0.29
